measuredTarget: HLA-A*11:01
testDetails: IEDB peptide-MHC binding, purified MHC/direct/fluorescence; filed as Kd, often an IC50 or EC50 that approximates it; bounds were set here for any values at or beyond the usual limits of such assays
assaySetup: source organism: Escherichia coli O157:H7

residueCodes | Kd
GLKRGGVLL | ≥ 20 µM

----------
measuredTarget: HLA-A*02:01
testDetails: IEDB peptide-MHC binding, purified MHC/competitive/fluorescence; bounds were set here for any values at or beyond the usual limits of such assays
assaySetup: source organism: Homo sapiens

residueCodes | measuredTarget | measurementUnits | IC50
KIGDFGLATV | HLA-A*02:01 | nM | 40

----------
measuredTarget: HLA-B*51:01
testDetails: IEDB peptide-MHC binding, purified MHC/competitive/fluorescence; filed as Kd, often an IC50 or EC50 that approximates it; bounds were set here for any values at or beyond the usual limits of such assays
assaySetup: source organism: Araucaria virus
pKd: −log10 of the molar value.
reportedMetric: pKd

residueCodes | reportedMetric | testValue
AFMATNKAY | pKd | ≤ 4.70

----------
measuredTarget: HLA-A*11:01
testDetails: IEDB peptide-MHC binding, purified MHC/competitive/fluorescence; filed as Kd, often an IC50 or EC50 that approximates it; bounds were set here for any values at or beyond the usual limits of such assays
assaySetup: source organism: Influenza A virus (A/California/04/2009(H1N1))
pKd: −log10 of the molar value.
reportedMetric: pKd

residueCodes | testValue
ITDRLFFK | 6.76

----------
measuredTarget: HLA-A*68:01
testDetails: IEDB peptide-MHC binding, purified MHC/competitive/radioactivity; filed as Kd, often an IC50 or EC50 that approximates it; bounds were set here for any values at or beyond the usual limits of such assays
assaySetup: source organism: Vaccinia virus Copenhagen

residueCodes | Kd
NTIVFGIYK | 1110 nM

----------
measuredTarget: HLA-A*01:01
testDetails: IEDB peptide-MHC binding, purified MHC/competitive/radioactivity; filed as Kd, often an IC50 or EC50 that approximates it; bounds were set here for any values at or beyond the usual limits of such assays
assaySetup: source organism: Mammarenavirus juninense
pKd: −log10 of the molar value.
reportedMetric: pKd

residueCodes | reportedMetric | testValue
FYQKTGEKS | pKd | ≤ 4.11

----------
measuredTarget: HLA-B*08:01
testDetails: IEDB peptide-MHC binding, purified MHC/direct/fluorescence; filed as Kd, often an IC50 or EC50 that approximates it; bounds were set here for any values at or beyond the usual limits of such assays
assaySetup: source organism: Variola virus
Known Kd of a selection of sequences
reportedMetric: Kd

residueCodes | measuredTarget | testValue
KVFFGPIYY | HLA-B*08:01 | ≥ 20 µM
SLYKYLLLR | HLA-B*08:01 | ≥ 20 µM

----------
measuredTarget: HLA-A*02:06
testDetails: IEDB peptide-MHC binding, purified MHC/competitive/radioactivity; filed as Kd, often an IC50 or EC50 that approximates it; bounds were set here for any values at or beyond the usual limits of such assays
assaySetup: source organism: Vaccinia virus WR
reportedMetric: Kd (nM)

residueCodes | measuredTarget | limitQualifier | testValue
NLLEQLIENI | HLA-A*02:06 | = | 396
PMSRLFMDEI | HLA-A*02:06 | = | 4370
NITHTNITTL | HLA-A*02:06 | = | 8170
ATCALVSDCA | HLA-A*02:06 | = | 9140
RLRYNLCKYL | HLA-A*02:06 | = | 15700
VIPFDDIVRT | HLA-A*02:06 | = | 18200
NLETYTRPEI | HLA-A*02:06 | = | 636
KIDILQMREI | HLA-A*02:06 | = | 875
NIYRLFTRCA | HLA-A*02:06 | = | 22.9
EIDVSEVKT | HLA-A*02:06 | ≥ | 77100
CVSNLDISSV | HLA-A*02:06 | = | 47.9
EMVEYLENQL | HLA-A*02:06 | = | 420
SQAKKPEVRI | HLA-A*02:06 | = | 5860
LMELPVKTDI | HLA-A*02:06 | = | 12900
DVQRTRCKYV | HLA-A*02:06 | = | 9510
PLHIVCSKTV | HLA-A*02:06 | ≥ | 27000
NVQSLIKFI | HLA-A*02:06 | = | 10500
ETIQKDINI | HLA-A*02:06 | ≥ | 34900
DIKYISRDEL | HLA-A*02:06 | = | 2060
DIIDLLLPST | HLA-A*02:06 | = | 284
ALKNSQAEL | HLA-A*02:06 | ≥ | 32900
DITNILGGVL | HLA-A*02:06 | = | 18900
PTIEDDKIVT | HLA-A*02:06 | ≥ | 69800
KIQLFSDFTI | HLA-A*02:06 | ≥ | 69800
IMRNFLRSIA | HLA-A*02:06 | = | 544
NVIGLIVIL | HLA-A*02:06 | = | 15.1
TIAHINTLI | HLA-A*02:06 | = | 571
GIKGLDERFV | HLA-A*02:06 | = | 940
SVDIETAIRA | HLA-A*02:06 | = | 1030
GVSGLYIPGT | HLA-A*02:06 | = | 31.7
IMEIVSHLRA | HLA-A*02:06 | = | 4410
LAYYNSCMLT | HLA-A*02:06 | = | 86.2
SLSNLDFRL | HLA-A*02:06 | = | 1380
QIMECSRML | HLA-A*02:06 | = | 948
WLRAKRKPAM | HLA-A*02:06 | = | 11900
LTNAISSRV | HLA-A*02:06 | = | 145
QQNNSFIIST | HLA-A*02:06 | = | 5710
IVYGRSNAI | HLA-A*02:06 | = | 30.2
YVGDTSMMVI | HLA-A*02:06 | = | 324
FVATFRDMLL | HLA-A*02:06 | = | 4.36
NVSRVVECLT | HLA-A*02:06 | ≥ | 10000
GLYIPGTSV | HLA-A*02:06 | = | 1740
QLFKYVPSA | HLA-A*02:06 | = | 349
VMDTLNGIMM | HLA-A*02:06 | = | 403
YIALCKVTV | HLA-A*02:06 | = | 18.8
TVGMSIVCIV | HLA-A*02:06 | = | 200
NILGGVLHT | HLA-A*02:06 | = | 9960
SIVCIVAAV | HLA-A*02:06 | = | 3.54
NTISGNIYSA | HLA-A*02:06 | = | 393
ALWDSNFFT | HLA-A*02:06 | ≥ | 23100
RIITILQDIV | HLA-A*02:06 | = | 94.8
ALTDVEKRIL | HLA-A*02:06 | = | 934
AILHNIYRL | HLA-A*02:06 | = | 43.8
ELEKCTSEI | HLA-A*02:06 | ≥ | 57900
YVSPTEMVDV | HLA-A*02:06 | = | 5.16
NVDVGCLLT | HLA-A*02:06 | ≥ | 64500
SILNNPVDT | HLA-A*02:06 | = | 14200
KINNNRIVAM | HLA-A*02:06 | = | 3190
EMQLKIDKLT | HLA-A*02:06 | ≥ | 69800
YTFAISYCRA | HLA-A*02:06 | = | 37.4
KVTVPTNDHI | HLA-A*02:06 | = | 3600
FTILEYLYIM | HLA-A*02:06 | = | 40.5
YVVIVENDNV | HLA-A*02:06 | = | 59.7
ELVMDKNHAI | HLA-A*02:06 | ≥ | 69800
TINVNSLAL | HLA-A*02:06 | = | 2180
VIIMAINVFT | HLA-A*02:06 | = | 674

----------
measuredTarget: HLA-B*15:17
testDetails: IEDB peptide-MHC binding, purified MHC/competitive/fluorescence; filed as Kd, often an IC50 or EC50 that approximates it; bounds were set here for any values at or beyond the usual limits of such assays
assaySetup: source organism: Human immunodeficiency virus 1
pKd: −log10 of the molar value.
reportedMetric: pKd

residueCodes | testValue
GTEELKSLY | 7.23
KSLYNTVAVLY | 6.32

----------
measuredTarget: HLA-B*58:01
testDetails: IEDB peptide-MHC binding, purified MHC/direct/fluorescence; filed as Kd, often an IC50 or EC50 that approximates it; bounds were set here for any values at or beyond the usual limits of such assays
assaySetup: source organism: Camelpox virus CMS

residueCodes | measurementUnits | Kd
KVFFGPIYY | nM | 21

Source: the Immune Epitope Database (IEDB)
